# Experimental Target: Sodium-dependent noradrenaline transporter (Homo sapiens, UniProt P23975)
# Sequence (P23975 whole entry): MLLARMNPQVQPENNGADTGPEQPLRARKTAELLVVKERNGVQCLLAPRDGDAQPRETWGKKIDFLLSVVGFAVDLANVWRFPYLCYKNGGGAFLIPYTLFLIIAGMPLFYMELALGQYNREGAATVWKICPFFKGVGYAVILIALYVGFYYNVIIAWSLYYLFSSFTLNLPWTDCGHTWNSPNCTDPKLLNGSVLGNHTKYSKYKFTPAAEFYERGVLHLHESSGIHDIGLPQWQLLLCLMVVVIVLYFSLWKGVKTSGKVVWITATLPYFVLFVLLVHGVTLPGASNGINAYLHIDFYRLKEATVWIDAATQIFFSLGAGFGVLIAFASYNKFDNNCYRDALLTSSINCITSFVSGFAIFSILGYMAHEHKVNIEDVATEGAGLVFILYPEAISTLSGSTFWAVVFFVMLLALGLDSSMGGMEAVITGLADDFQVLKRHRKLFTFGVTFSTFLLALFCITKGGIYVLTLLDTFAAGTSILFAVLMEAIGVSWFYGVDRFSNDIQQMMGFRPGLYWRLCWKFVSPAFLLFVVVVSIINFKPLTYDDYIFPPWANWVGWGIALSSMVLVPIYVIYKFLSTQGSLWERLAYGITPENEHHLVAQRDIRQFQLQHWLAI
# Assay Protocol: The compound was tested for inhibition of [3H]norepinephrine uptake in HEK cells by expressing cDNA for human norepinephrine transporter
Quantity Kind: pIC50
The value called pIC50 is obtained by taking minus log10 of the concentration in mol/L.

Reported pIC50, compound CCCC1C2C3CCN2[C@H](C3)C[C@@H]1c1ccc(C)cc1 (stereo partly drawn) : ____
6.96

Okay, and O=C1CN2C3CC[C@@H]2C[C@H](c2ccc(F)cc2)C13 ?
6.21

Okay, and Cc1ccc([C@H]2C[C@H]3CCC4C2[C@](C)(O)CN43)cc1 ?
6.53

Okay, and Cc1ccc([C@H]2C[C@H]3CCC4C2[C@@](O)(c2ccccc2)CN43)cc1 ?
7.96

Okay, and Cc1ccc([C@H]2C[C@H]3CCC4C2[C@@](O)(c2ccc(Cl)cc2)CN43)cc1 ?
7.64

Okay, and Cc1ccc([C@H]2C[C@H]3CCC4C2C(=O)CN43)cc1 ?
6.96

Okay, and CCC[C@@]1(O)CN2C3CC[C@@H]2C[C@H](c2ccc(C)cc2)C31 ?
7.74

Okay, and C=C1CN2C3CC[C@@H]2C[C@H](c2ccc(C)cc2)C13 ?
8.66

From: ChEMBL document CHEMBL1133495
